Provenance of the data: patent US20140087995A1

- assayedTarget: T1, rat amylin receptor (rat calcitonin receptor + rat RAMP 3) (rat, UniProt P32214 25-516; Q9JJ73 23-147)
- T1 construct: whole, on cells; membranes of transiently transfected BHK tk'ts 13 cells (Assay VI); also called rAmylin-R; rat amylin 3(a) receptor
- T1 sequence (looked up) 1: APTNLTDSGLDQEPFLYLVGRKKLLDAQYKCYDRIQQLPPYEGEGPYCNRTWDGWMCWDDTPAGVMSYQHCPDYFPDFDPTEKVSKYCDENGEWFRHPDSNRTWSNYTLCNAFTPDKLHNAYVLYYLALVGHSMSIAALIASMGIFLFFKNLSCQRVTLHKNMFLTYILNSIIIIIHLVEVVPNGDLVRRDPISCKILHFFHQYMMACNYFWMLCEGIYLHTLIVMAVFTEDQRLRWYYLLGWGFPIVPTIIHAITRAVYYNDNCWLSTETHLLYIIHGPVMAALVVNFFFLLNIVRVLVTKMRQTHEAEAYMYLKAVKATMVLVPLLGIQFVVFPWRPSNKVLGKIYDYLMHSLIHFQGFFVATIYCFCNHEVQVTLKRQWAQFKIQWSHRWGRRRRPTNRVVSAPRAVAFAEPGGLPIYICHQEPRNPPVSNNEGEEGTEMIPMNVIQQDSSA
- T1 sequence (looked up) 2: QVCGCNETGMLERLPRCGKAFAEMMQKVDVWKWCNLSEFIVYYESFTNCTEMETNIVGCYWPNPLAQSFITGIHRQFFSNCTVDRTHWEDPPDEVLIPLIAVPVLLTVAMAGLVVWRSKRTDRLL
- runDescription: SPA competition with 125I-rat amylin, membranes of BHK cells with rat calcitonin receptor + rat RAMP3 (Assay VI)
Numbered stars: 1 amine (or outer) side, 2 acyl side, 3 side chain; on linkers, the order of the positions; unused ones are H or OH. Bridge positions count the residues as written; N and C are the ends. Side chains are listed from the residue outwards. Ends that are not written are not given here. * marks the point of attachment. C20 diacid = O=C(O)CCCCCCCCCCCCCCCCCCC(=O)*; γGlu = O=C(O)[C@H](CCC(=O)[*:2])N[*:1]; AEEA = NCCOCCOCC(=O)O
With a cut-off of 1 nM, any IC50 strictly below it is called Criterion met; any IC50 meeting it or above is called Criterion not met.

{"binder": "K([AEEA-C20 diacid])CNTATCATQRLANFLRHSSPNFGAIPSSTNVGSNTY-NH2 (disulfide 2-7 (inferred), analogue of human amylin; also called compound 43) [N^ε1-[2-[2-[2-(19-carboxynonadecanoylamino)ethoxy]ethoxy]acetyl]-[Arg17,Pro21,Pro27]-h-amylin]", "discreteLabel": "Criterion met"}
{"binder": "KCNTATCATQRLANFLRHSSPNFGAIPSSTNVGSETY (C20 diacid-gGlu on the alpha amino group of the N-terminal residue (Lys 1); disulfide bridge between the two Cys residues; C-terminal amide, analogue of human amylin; also called compound 23) [N^α1-[(4S)-4-carboxy-4-(19-carboxynonadecanoylamino)butanoyl]-[Arg17,Pro21,Pro27,Glu35]-h-amylin]", "discreteLabel": "Criterion not met"}
{"binder": "K([AEEA-γGlu-C20 diacid])CNTATCATQRLANFLRHSSPNFGAIPSSTNVGSETY-NH2 (disulfide 2-7 (inferred), analogue of human amylin; also called compound 26)", "discreteLabel": "Criterion met"}
{"binder": "{C20 diacid-γGlu}-GRCNTATCATQRLANFLRHSSPNFGAIPSSTNVGSNTY-NH2 (disulfide 3-8 (inferred), analogue of human amylin extended by Gly at the N-terminus; also called compound 46) [N^-1-[(4S)-4-carboxy-4-(19-carboxynonadecanoylamino)butanoyl]-Gly[Arg1,Arg17,Pro21,Pro27]-h-amylin]", "discreteLabel": "Criterion met"}
{"binder": "K(C20 diacid)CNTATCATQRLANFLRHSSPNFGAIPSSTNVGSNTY-NH2 (disulfide 2-7 (inferred), analogue of human amylin; also called compound 42) [N^ε1-19-carboxynonadecanoyl-[Arg17,Pro21,Pro27]-h-amylin]", "discreteLabel": "Criterion met"}

Task: Regarding KCNTATCATQRLANFLRHSSPNFGAIPSSTNVGSNTY (C20 diacid-gGlu-2xOEG on the alpha amino group of the N-terminal residue (Lys 1); disulfide bridge between the two Cys residues; C-terminal amide, analogue of human amylin; also called compound 24) , kindly confirm whether its IC50 is beneath 1 nM.
Result: Criterion not met

Task: For this binder, is IC50 lower than 1 nM? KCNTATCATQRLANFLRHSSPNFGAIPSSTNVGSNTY (C20 diacid-gGlu on the alpha amino group of the N-terminal residue (Lys 1); disulfide bridge between the two Cys residues; C-terminal amide, analogue of human amylin; also called compound 21) [N^α1-[(4S)-4-carboxy-4-(19-carboxynonadecanoylamino)butanoyl]-[Arg17,Pro21,Pro27]-h-amylin]
Result: Criterion not met

Task: Would you kindly verify if IC50 of {C20 diacid-γGlu}-KCNTATCATQRLAEFLRHSSPNFGPILPPTNVGSNTY-NH2 (disulfide 2-7 (inferred), analogue of human amylin; also called compound 6) is strictly less than 1 nM?
Result: Criterion not met

Task: # TODO verify IC50 < 1 nM strictly for this binder: K([γGlu-C20 diacid])CNTATCATQRLANFLRHSSPNFGAIPSSTNVGSKTY-NH2 (disulfide 2-7 (inferred), analogue of human amylin; also called compound 35) [N^ε1-[(4S)-4-carboxy-4-(19-carboxynonadecanoylamino)butanoyl]-[Arg17,Pro21,Pro27,Lys35]-h-amylin]
Result: Criterion met

Task: Decide: IC50 of {C20 diacid-γGlu}-KCNTATCATQRLAEFLRHSSPNFGAIPSSTNVGSETY-NH2 (disulfide 2-7 (inferred), analogue of human amylin; the name is printed with N^α1 twice; also called compound 22) strictly below 1 nM?
Result: Criterion not met
